Molecular target: CLOSPO_02083 (Clostridium sporogenes, UniProt J7SZ64)
Construct: His6 (N)
Sequence (J7SZ64 whole entry): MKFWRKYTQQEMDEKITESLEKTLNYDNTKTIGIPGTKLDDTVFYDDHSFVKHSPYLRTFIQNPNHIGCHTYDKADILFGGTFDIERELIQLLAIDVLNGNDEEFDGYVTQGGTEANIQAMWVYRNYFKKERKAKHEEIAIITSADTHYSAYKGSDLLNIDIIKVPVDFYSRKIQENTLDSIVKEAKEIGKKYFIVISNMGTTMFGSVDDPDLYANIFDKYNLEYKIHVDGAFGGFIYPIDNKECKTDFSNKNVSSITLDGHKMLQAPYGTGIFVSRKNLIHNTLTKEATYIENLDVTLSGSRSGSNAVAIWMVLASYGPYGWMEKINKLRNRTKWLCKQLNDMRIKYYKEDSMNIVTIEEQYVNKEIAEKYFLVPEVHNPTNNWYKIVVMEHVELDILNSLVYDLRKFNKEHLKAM
Assay: Inhibition of CLOSPO_02083 tryptamine production by (S)-α-FMT, progress curves
Details: CLOSPO_02083, 10 mM Trp

[
  {
    "COMPOUND": "N[C@@](CF)(Cc1c[nH]c2ccccc12)C(=O)O [(S)-α-FMT, (S)-α-fluoromethyltryptophan]",
    "Ki [µM]": 0.2
  }
]

###

Target: RUMGNA_01526 (Mediterraneibacter gnavus)
Construct: His6 (N)
Test: Inhibition of RUMGNA_01526 tryptamine production by (S)-α-FMT, progress curves
Conditions: RUMGNA_01526, 2.5 mM Trp
pKi: −log10 of the molar value.

[
  {
    "COMPOUND": "N[C@@](CF)(Cc1c[nH]c2ccccc12)C(=O)O [(S)-α-FMT, (S)-α-fluoromethyltryptophan]",
    "pKi": 3.75
  }
]
